Below, each entry is listed with its recorded IC50.
- assay system: PI3K α (Homo sapiens, UniProt P42336)
- Construct: purchased Upstate
- Sequence (P42336 whole entry): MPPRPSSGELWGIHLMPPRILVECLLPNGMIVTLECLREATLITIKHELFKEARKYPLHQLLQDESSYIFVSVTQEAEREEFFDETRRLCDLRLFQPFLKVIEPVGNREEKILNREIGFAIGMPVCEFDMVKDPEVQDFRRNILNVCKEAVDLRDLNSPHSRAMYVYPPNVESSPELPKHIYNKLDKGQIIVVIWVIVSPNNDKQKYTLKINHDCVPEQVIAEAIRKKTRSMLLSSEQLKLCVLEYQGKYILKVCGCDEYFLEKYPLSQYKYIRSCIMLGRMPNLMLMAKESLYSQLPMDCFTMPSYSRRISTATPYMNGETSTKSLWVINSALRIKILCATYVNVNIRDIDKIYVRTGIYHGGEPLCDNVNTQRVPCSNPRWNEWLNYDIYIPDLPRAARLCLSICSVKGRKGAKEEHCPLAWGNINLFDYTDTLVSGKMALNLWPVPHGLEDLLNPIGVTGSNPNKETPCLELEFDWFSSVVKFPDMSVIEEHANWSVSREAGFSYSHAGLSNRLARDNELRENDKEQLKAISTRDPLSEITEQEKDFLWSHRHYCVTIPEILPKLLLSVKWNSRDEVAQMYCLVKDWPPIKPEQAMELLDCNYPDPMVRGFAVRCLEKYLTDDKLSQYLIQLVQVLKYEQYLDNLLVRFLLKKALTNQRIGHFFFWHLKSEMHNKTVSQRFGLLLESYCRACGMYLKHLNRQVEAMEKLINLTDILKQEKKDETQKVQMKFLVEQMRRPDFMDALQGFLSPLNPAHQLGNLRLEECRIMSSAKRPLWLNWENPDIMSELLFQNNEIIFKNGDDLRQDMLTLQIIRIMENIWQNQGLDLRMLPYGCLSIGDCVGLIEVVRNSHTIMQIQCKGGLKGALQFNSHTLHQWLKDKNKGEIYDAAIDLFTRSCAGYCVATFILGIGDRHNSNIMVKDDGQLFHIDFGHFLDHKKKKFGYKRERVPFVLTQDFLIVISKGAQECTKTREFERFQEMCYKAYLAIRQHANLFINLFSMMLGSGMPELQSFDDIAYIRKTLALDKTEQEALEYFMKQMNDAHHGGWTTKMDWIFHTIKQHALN
- Sequence (P27986 whole entry partner): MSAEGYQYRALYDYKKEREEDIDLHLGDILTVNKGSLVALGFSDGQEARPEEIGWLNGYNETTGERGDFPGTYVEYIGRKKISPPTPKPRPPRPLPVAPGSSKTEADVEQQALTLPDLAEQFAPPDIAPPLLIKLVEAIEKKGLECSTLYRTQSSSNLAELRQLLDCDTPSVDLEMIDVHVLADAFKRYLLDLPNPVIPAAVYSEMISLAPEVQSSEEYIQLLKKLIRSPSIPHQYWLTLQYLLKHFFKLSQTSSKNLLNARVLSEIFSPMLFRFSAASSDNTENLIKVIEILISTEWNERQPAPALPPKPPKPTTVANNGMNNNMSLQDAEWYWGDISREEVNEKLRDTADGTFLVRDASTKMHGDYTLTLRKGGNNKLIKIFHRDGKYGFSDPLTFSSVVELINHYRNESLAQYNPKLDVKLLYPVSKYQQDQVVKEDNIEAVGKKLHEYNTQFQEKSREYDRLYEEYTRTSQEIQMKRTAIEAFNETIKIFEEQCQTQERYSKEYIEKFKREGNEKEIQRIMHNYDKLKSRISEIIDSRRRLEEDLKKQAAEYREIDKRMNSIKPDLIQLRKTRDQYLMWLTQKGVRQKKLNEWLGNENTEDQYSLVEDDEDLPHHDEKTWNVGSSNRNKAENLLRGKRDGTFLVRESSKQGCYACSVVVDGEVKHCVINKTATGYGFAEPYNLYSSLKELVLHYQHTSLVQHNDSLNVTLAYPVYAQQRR
- assay overview: In vitro PI3K α inhibition assay
- Format: biochemical

| molecule | IC50 |
| --- | --- |
| C[C@H](Nc1ncnc(N)c1C#N)c1cc2cccc(-c3cnn(C)c3)c2c(=O)n1-c1ccccc1 [Compound 73] | < 10000 nM |
| C[C@H](Nc1ncnc2[nH]cnc12)c1cc2cccc(-c3cnn(C)c3)c2c(=O)n1-c1cccc(F)c1 [Compound 45] | < 10000 nM |
| C[C@@H](Nc1ncnc2[nH]cnc12)c1cc2cccc(-c3cn[nH]c3)c2c(=O)n1C1CC1 [Compound 12] | < 1000 nM |
| C[C@@H](Nc1ncnc2[nH]cnc12)c1cc2cccc(N(C)C)c2c(=O)n1-c1ccccc1 (stereo in doubt) [Compound 17] | > 10000 nM |
| C[C@@H](Nc1ncnc2[nH]cnc12)c1cc2cccc(-c3cccnc3)c2c(=O)n1-c1ccccc1 (stereo in doubt) [Compound 7] | < 10000 nM |
| C[C@@H](Nc1ncnc2[nH]cnc12)c1cc2cccc(-c3cc[nH]n3)c2c(=O)n1-c1ccccc1 (stereo in doubt) [Compound 18] | > 10000 nM |
| C[C@@H](Nc1ncnc2[nH]cnc12)c1cc2cccc(-c3cnn(C)c3)c2c(=O)n1-c1ccccc1 (stereo in doubt) [Compound 19] | > 10000 nM |
| Cc1ccc(-c2cccc3cc([C@H](C)Nc4ncnc5[nH]cnc45)n(-c4ccccc4)c(=O)c23)cn1 [Compound 27] | < 10000 nM |
| C[C@H](Nc1ncnc2[nH]cc(F)c12)c1cc2cccc(-c3cnn(C)c3)c2c(=O)n1C1CC1 [Compound 62] | < 10000 nM |
| CCc1cccc2cc(C(C)Nc3ncnc4[nH]cnc34)n(-c3ccccc3)c(=O)c12 (stereo in doubt) [Compound 9] | < 10000 nM |
| C=Cc1cccc2cc(C(C)Nc3ncnc4[nH]cnc34)n(-c3ccccc3)c(=O)c12 (stereo in doubt) [Compound 8] | < 10000 nM |
| C[C@@H](Nc1ncnc2[nH]cnc12)c1cc2cccc(-c3cccnc3)c2c(=O)n1C1CC1 (stereo in doubt) [Compound 13] | < 10000 nM |
| C[C@H](Nc1ncnn2ccnc12)c1cc2cccc(-c3cnn(C)c3)c2c(=O)n1-c1ccccc1 [Compound 52] | < 10000 nM |
| C[C@H](Nc1ncnc2[nH]cc(C(N)=O)c12)c1cc2cccc(-c3cnn(C)c3)c2c(=O)n1-c1ccccc1 [Compound 58] | < 10000 nM |

----------
- Tested on: Balb/c splenic B cells
- assay overview: B cell activation and proliferation assay (Alamar Blue)
- Format: cell-based
- condition parameters: Mus musculus, read-out: B cell proliferation EC50
pEC50: −log10 of the molar value.

| compound | assay system | pEC50 |
| --- | --- | --- |
| C[C@H](Nc1ncnn2ccnc12)c1cc2cccc(-c3cnn(C)c3)c2c(=O)n1-c1ccccc1 | Balb/c splenic B cells | > 7.00 |
| C[C@@H](Nc1ncnc2[nH]cnc12)c1cc2cccc(-c3cn[nH]c3)c2c(=O)n1C1CC1 | Balb/c splenic B cells | > 7.00 |
| C=Cc1cccc2cc(C(C)Nc3ncnc4[nH]cnc34)n(-c3ccccc3)c(=O)c12 (stereo in doubt) | Balb/c splenic B cells | > 7.00 |
| Cc1cc(-c2cccc3cc([C@H](C)Nc4ncnc5[nH]cnc45)n(-c4ccccc4)c(=O)c23)ccn1 | Balb/c splenic B cells | > 7.00 |
| C[C@H](Nc1ncnc2[nH]cnc12)c1cc2cccc(N3CCN(C)CC3)c2c(=O)n1-c1ccccc1 | Balb/c splenic B cells | > 7.00 |
| C[C@H](Nc1ncnc2[nH]cc(F)c12)c1cc2cccc(-c3cnn(C)c3)c2c(=O)n1C1CC1 | Balb/c splenic B cells | > 7.00 |
| C[C@@H](Nc1ncnc2[nH]cnc12)c1cc2cccc(-c3cnn(C)c3)c2c(=O)n1-c1ccccc1 (stereo in doubt) | Balb/c splenic B cells | > 7.00 |
| Cc1cn(-c2cccc3cc([C@H](C)Nc4ncnc5[nH]cnc45)n(-c4ccccc4)c(=O)c23)cn1 | Balb/c splenic B cells | > 7.00 |
| C[C@@H](Nc1ncnc2[nH]cnc12)c1cc2cccc(-c3cnn(C)c3)c2c(=O)n1C1CC1 (stereo in doubt) | Balb/c splenic B cells | > 7.00 |
| C[C@H](Nc1ncnc2[nH]cnc12)c1cc2cccc(N3CCCC3)c2c(=O)n1-c1ccccc1 | Balb/c splenic B cells | > 6.00 |
| C[C@H](Nc1ncnc(N)n1)c1cc2cccc(-c3cnn(C)c3)c2c(=O)n1-c1ccccc1 | Balb/c splenic B cells | > 7.00 |
| C[C@H](Nc1ncnc2[nH]cc(C#N)c12)c1cc2cccc(-c3cnn(C)c3)c2c(=O)n1-c1ccccc1 | Balb/c splenic B cells | > 7.00 |
| Cc1ccc(-c2cccc3cc([C@H](C)Nc4nc(N)nc5[nH]cnc45)n(-c4ccccc4)c(=O)c23)cn1 | Balb/c splenic B cells | > 7.00 |
| CCc1cccc2cc(C(C)Nc3ncnc4[nH]cnc34)n(-c3ccccc3)c(=O)c12 (stereo in doubt) | Balb/c splenic B cells | > 7.00 |
